- Test system: OVCAR-8 ovarian
- experimental details: NCI-60 one-dose screen, 48 h
- assay context: 10 µM unless noted
- Protocol: Growth inhibition of the OVCAR-8 human tumor cell line is measured as a screen for anti-cancer activity. Cells are grown in 96 well plates and exposed to the test compound for 48 hours. Compounds are tested at a single concentration, which is 10^-5 M for most compounds. The reported endpoint is percent growth (GI% or GIPRCNT), where numbers from 0 - 100% represent growth inhibition, and numbers from -100% - 0 represent cell death. For example, a value of 40 represents 60% growth inhibition. […]
The panel holds about 83,000 compounds, 20% with a hit somewhere; the sample as a whole holds those more often. Calls of active or inactive are those of the source. How the source made its calls: active means growth percent below 10; inactive means the rest.
Hi! Could you answer with just one of these? active, inactive

Reference set, count: 6
COc1ccc(/C=C/C(=O)c2ccc([N+](=O)[O-])cc2)cc1 :: inactive
COc1cc(/C=C/c2cc(/C=C/c3ccc(O)c(OC)c3)n(-c3ccccc3)c(=O)n2)ccc1O :: inactive
CC(C)=CCC[C@](C)(O)[C@H]1CC[C@]2(C)[C@@H]1CC[C@@H]1[C@@]3(C)C/C(=C/c4cccc([N+](=O)[O-])c4)C(=O)C(C)(C)[C@@H]3CC[C@]12C :: inactive
Cn1cc(-c2csc(-c3c[nH]c4ccc(F)cc34)n2)c2cccnc21 :: inactive
NCCn1cc(-c2nc(-c3c[nH]c4ncccc34)cs2)c2cc(F)ccc21 :: inactive
N#CC1=C(N)Oc2ccc3ccccc3c2C1c1ccccc1 (stereo not given) :: inactive

Ask | Give the logged outcome of this assay for the following compound: CCCCC[C@H]1C/C=C2/C(=O)C(Cl)=C[C@@H]2C/C=C\CCCC(=O)O1
Reply | active

Ask | Give the logged outcome of this assay for the following compound: CCCCN1CCCCn2c1nc1c2c(=O)n(C)c(=O)n1C
Reply | inactive

Ask | Give the logged outcome of this assay for the following compound: N#C/C(=C\c1ccc(-c2ccc(Br)cc2)o1)c1nc(-c2cccs2)cs1
Reply | inactive

Ask | Give the logged outcome of this assay for the following compound: C[N+](C)(CCCCCC[N+](C)(C)C1c2ccccc2-c2ccccc21)C1c2ccccc2-c2ccccc21
Reply | inactive

Ask | Give the logged outcome of this assay for the following compound: O=S(=O)(NCCNc1cc(-c2cn(-c3ccccc3)nc2-c2cccc(O)c2)ccn1)c1ccc(Br)cc1
Reply | inactive

Ask | Give the logged outcome of this assay for the following compound: Clc1cc(Cl)cc(Nc2ccc3c(OCCCN4CCOCC4)cccc3n2)c1
Reply | inactive

Ask | Give the logged outcome of this assay for the following compound: C=C(C)[C@@H]1CC[C@]2(C)CC[C@]3(C)[C@H](CC[C@@H]4[C@@]5(C)CCCNC(C)(C)[C@@H]5CC[C@]43C)[C@@H]12
Reply | inactive

Ask | Give the logged outcome of this assay for the following compound: CCCCC[C@H]1C/C=C2/C(=O)C=C[C@@H]2C/C=C\CCCC(=O)O[C@@H](CCCCC)C/C=C2/C(=O)C=C[C@@H]2C/C=C\CCCC(=O)O1
Reply | active

Ask | Give the logged outcome of this assay for the following compound: CCCCCCCC(=O)SCC/C=C/[C@@H]1CC(=O)NCc2cccc(n2)CN(Cc2ccc3ccccc3c2)CC(=O)N[C@@H](C(C)C)C(=O)O1
Reply | inactive

Ask | Give the logged outcome of this assay for the following compound: CCCCCC1CCCCN1C(=O)OCC (stereo not given)
Reply | inactive

Ask | Give the logged outcome of this assay for the following compound: CC1(C)C(=O)/C(=C\c2cccnc2)C[C@]2(C)[C@H]3CC[C@@H]4[C@@H](C(=O)/C=C/c5ccncc5)CC[C@@]4(C)[C@]3(C)CC[C@@H]12
Reply | inactive

Ask | Give the logged outcome of this assay for the following compound: C/C(=N\NC(=O)C(C)SC(C)C(=O)N/N=C(\C)c1cccnc1)c1cccnc1 (stereo not given)
Reply | inactive

Ask | Give the logged outcome of this assay for the following compound: Fc1cccc(-c2[nH]nc3nc(Nc4cccnc4)sc23)c1
Reply | inactive

Ask | Give the logged outcome of this assay for the following compound: C[C@H]1[C@@H]2[C@H]3CC[C@@H]4[C@@]5(C)Cc6c([nH]c7ccccc67)C(C)(C)[C@@H]5CC[C@@]4(C)[C@]3(C)CC[C@]23CO[C@]1(C)[C@@H](C(=O)/C=C/c1ccccn1)C3
Reply | inactive

Ask | Give the logged outcome of this assay for the following compound: COc1cccc2c1C(=O)c1c(O)c3c(c(O)c1C2=O)C[C@@](O)(C(=O)CO)C[C@@H]3OC1C[C@H](N)[C@H](O)[C@H](C)O1 (stereo not given in full)
Reply | active

Ask | Give the logged outcome of this assay for the following compound: O=C(/C=C/c1ccc2ccccc2c1)Nc1ncc(Cc2ccccc2)s1
Reply | inactive

Ask | Give the logged outcome of this assay for the following compound: Cc1ccc(-c2nc3ccc(Cl)cc3c(=O)n2N2C(=O)CSC2c2ccccc2Cl)cc1 (stereo not given)
Reply | inactive

Ask | Give the logged outcome of this assay for the following compound: C=C(C)[C@@H]1CC[C@]2(C)[C@H](CC[C@@H]3[C@H]4[C@H]5OC[C@@]4(CCC5(C)C)CC[C@]32C)[C@@]1(C)CCCN
Reply | inactive

Ask | Give the logged outcome of this assay for the following compound: CCCC(=O)N1CCCCC1CC (stereo not given)
Reply | inactive

Ask | Give the logged outcome of this assay for the following compound: C[C@@H]1CCCCCCCCC[C@H](O)C(=O)C[C@@H](SC[C@@H](O)C(=O)O)C(=O)O1
Reply | inactive

Ask | Give the logged outcome of this assay for the following compound: COC(=O)[C@@H]1[C@H]2C[C@H]3c4[nH]c5cc(OC)ccc5c4CCN3C[C@@H]2C[C@H](OC(=O)/C=C/c2ccnc(OC)c2)[C@H]1OC
Reply | inactive

Ask | Give the logged outcome of this assay for the following compound: NCCn1cc(-c2nc(-c3c[nH]c4ncccc34)cs2)c2cc(Br)ccc21
Reply | inactive

Ask | Give the logged outcome of this assay for the following compound: Cn1cnc2c1c(=O)n(CCC(=O)Nc1ccc(F)cc1)c(=O)n2C
Reply | inactive

Ask | Give the logged outcome of this assay for the following compound: COc1ccc2c(c1)c(-c1nc(-c3c[nH]c4ncccc34)cs1)cn2CCNC(=O)OC(C)(C)C
Reply | inactive
